Kindly state GI50 for each of the entries shown.
- Tested on: A498
- ASSAY: NCI tumour cell line growth inhibition, 48 h
Activity calls are given as the source filed them. Rule as the data show it: active = GI50 up to about 1.1 µM and inactive = higher.

Some compounds with recorded GI50:
1. CN1CCc2c(sc3ncn(Nc4ccc(Cl)cc4)c(=N)c23)C1 :: > 100 µM (inactive)
2. O=C(Nc1ccccc1)n1[nH]c(=O)n(-c2ccccc2)c1=O :: > 100 µM (inactive)
3. NC(=O)c1csc(C2O[C@@H](COP(=O)(O)OP(=O)(O)OC[C@H]3OC(n4cnc5c(N)ncnc54)[C@H](O)[C@@H]3O)[C@H](O)[C@@H]2O)n1 (stereo partly drawn) :: > 100 µM (inactive)

Quick one: give me GI50 for each item below, same order please.
1. OC[C@H]1O[C@@H]2O[C@@](COCc3ccccc3)([C@H](OCc3ccccc3)[C@H]2O)[C@@H]1OCc1ccccc1
2. CC(=O)O[C@@H]1C=C(C)[C@H](CBr)O[C@@]2(C)CC[C@H](Br)C(C)(C)[C@H]12
3. O=[As](O)(O)c1ccc(Cc2ccc([As](=O)(O)O)cc2)cc1
4. CCN1CCC(CNC(=O)c2ccc(N)cc2)N1CC (stereo not drawn)

["18.1 µM (inactive)", "> 100 µM (inactive)", "2.12 µM (inactive)", "> 100 µM (inactive)"]
